Below, each entry is listed with its recorded Ratio CC50/EC50.
assay: Selectivity index, ratio of CC50 for human TZM-bl cells to EC50 for HIV1 NL4-3; format: toxicity, cell-based; conditions: tzm-bl

compound: Cc1cc(/C=C/C#N)cc(C)c1Oc1ccc(N)c(Nc2ccc(C#N)cc2)n1
value_qualifier: =
Ratio CC50/EC50: 13732
--
compound: Cc1cc(/C=C/C#N)cc(C)c1Oc1ccc([N+](=O)[O-])c(Nc2ccc(C#N)cc2)n1
value_qualifier: >
Ratio CC50/EC50: 6082
--
compound: C=CCc1cc(C)c(Oc2ccc(N)c(Nc3ccc(C#N)cc3)n2)c(C)c1
value_qualifier: =
Ratio CC50/EC50: 1228
--
compound: Cc1cc(C(O)C[N+](=O)[O-])cc(C)c1Oc1ccc(N)c(Nc2ccc(C#N)cc2)n1.Cl (stereo not given)
value_qualifier: =
Ratio CC50/EC50: 695
--
compound: CC(=O)/C=C/c1cc(C)c(Oc2cc(Nc3ccc(C#N)cc3)c([N+](=O)[O-])cc2[N+](=O)[O-])c(C)c1
value_qualifier: =
Ratio CC50/EC50: 167
